test system: F380Y/beta1; test: modulators of BK channel variants, profiling panel, selectivity assay, cell-based, U2OS BacMam, thallium flux, beta subunits (AID 1259406); settings: at 30 µM;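 note: initial slope of Thallos dye fluorescence rise after thallium is added; log ratio against the mean of 0.3% DMSO vehicle wells on the same plate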
recordedEndpoint: log fold change Tl+ flux
Hey, just send me the number, nothing else.

In plain terms, `C[N+]1(CCC(C(N)=O)(c2ccccc2)c2ccccc2)CCCCC1` has a documented log fold change Tl+ flux of -0.0163

In plain terms, `Cc1ncc2n1-c1ccc(Cl)cc1C(c1ccccc1F)=NC2` has a documented log fold change Tl+ flux of -0.386

In plain terms, `O=C1CN=C(c2ccccc2)c2cc([N+](=O)[O-])ccc2N1` has a documented log fold change Tl+ flux of -0.0368

In plain terms, CCCC(C)(COC(N)=O)COC(=O)NC(C)C (stereo not given) has a documented log fold change Tl+ flux of 0.0587

In plain terms, `Clc1ccc(CON=C(Cn2ccnc2)c2ccc(Cl)cc2Cl)c(Cl)c1` has a documented log fold change Tl+ flux of -0.00723

In plain terms, `COc1cc2c(cc1OC)[C@@]13CCN4CC5=CCO[C@H]6CC(=O)N2[C@H]1[C@H]6[C@H]5C[C@H]43` has a documented log fold change Tl+ flux of -0.0206

In plain terms, `C[N+]1(C)CCN(c2ccccc2)CC1` has a documented log fold change Tl+ flux of -0.0597

In plain terms, CC1CCC[C@H](O)CCCCCc2cc(O)cc(O)c2C(=O)O1 (stereo not given in full) has a documented log fold change Tl+ flux of 0.0798

In plain terms, `Oc1cc(Cl)ccc1Oc1ccc(Cl)cc1Cl` has a documented log fold change Tl+ flux of -0.302

In plain terms, `C=CCN1CC[C@]23c4c5ccc(O)c4O[C@H]2C(=O)CC[C@@]3(O)[C@H]1C5` has a documented log fold change Tl+ flux of 0.0814

In plain terms, NC1=NC(=O)C(c2ccccc2)O1 (stereo not given) has a documented log fold change Tl+ flux of -0.0441

In plain terms, CC(O)(CS(=O)(=O)c1ccc(F)cc1)C(=O)Nc1ccc(C#N)c(C(F)(F)F)c1 (stereo not given) has a documented log fold change Tl+ flux of 0.0749

In plain terms, `CN1CCN(C(=O)O[C@H]2c3nccnc3C(=O)N2c2ccc(Cl)cn2)CC1` has a documented log fold change Tl+ flux of -0.0113

In plain terms, `NCCc1ccccn1` has a documented log fold change Tl+ flux of 0.0119

In plain terms, `COc1ccc2[nH]cc(CCN)c2c1` has a documented log fold change Tl+ flux of 0.0119
